Data origin, for the record: patent US11879021B2

Target or system: CD36 (Rattus norvegicus)
Construct: from tissue; host or cells: Heart (cardiac membranes) of Sprague Dawley rats from Charles River
Sequence (Q07969 whole entry): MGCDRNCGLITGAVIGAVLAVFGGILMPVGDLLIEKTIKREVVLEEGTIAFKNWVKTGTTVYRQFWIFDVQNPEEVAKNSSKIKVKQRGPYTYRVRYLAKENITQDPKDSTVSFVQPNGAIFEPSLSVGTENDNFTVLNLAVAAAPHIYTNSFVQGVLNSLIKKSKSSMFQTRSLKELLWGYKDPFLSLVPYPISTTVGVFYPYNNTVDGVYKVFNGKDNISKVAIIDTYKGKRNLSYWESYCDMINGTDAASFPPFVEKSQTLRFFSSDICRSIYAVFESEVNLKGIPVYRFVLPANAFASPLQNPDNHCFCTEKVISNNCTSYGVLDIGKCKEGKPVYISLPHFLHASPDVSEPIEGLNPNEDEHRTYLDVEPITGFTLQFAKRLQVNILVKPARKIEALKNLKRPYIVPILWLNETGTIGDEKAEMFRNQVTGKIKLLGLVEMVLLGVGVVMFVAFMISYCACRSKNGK
Experiment description: Competition binding of photoactivatable [125I]-Tyr-Bpa-Ala-Hexarelin to CD36 in rat cardiac membranes
Settings: competition with [125I]-Tyr-Bpa-Ala-Hexarelin, rat heart membranes; read-out: IC50 (μM), binding affinity for CD36
Assign labels as follows, please: 1 for IC50 below 0.9 µM; 0 for IC50 equal to or exceeding 0.9 µM.

[
  {
    "Compound": "C=CCN1CC#CCN(NC(=O)[C@H](C)N)S(=O)(=O)N[C@H](Cc2c[nH]c3ccccc23)C(=O)N[C@@H](C)C(=O)N[C@@H](Cc2c[nH]c3ccccc23)C(=O)N[C@H](Cc2ccccc2)C(=O)N[C@H](C(N)=O)CCCC1",
    "Target or system": "CD36 (Rattus norvegicus)",
    "Discrete label": 0
  },
  {
    "Compound": "C=CCN1CC#CCN(NC(=O)[C@H](C)N)C(=O)N[C@@H](C)C(=O)N[C@@H](Cc2c[nH]c3ccccc23)C(=O)N[C@H](Cc2ccccc2)C(=O)N[C@H](C(N)=O)CCCC1",
    "Target or system": "CD36 (Rattus norvegicus)",
    "Discrete label": 1
  },
  {
    "Compound": "C=CCN1CC#CCN(NC(=O)C(C)N)C(=O)N[C@H](Cc2c[nH]c3ccccc23)C(=O)N[C@@H](C)C(=O)N[C@@H](Cc2c[nH]c3ccccc23)C(=O)N[C@H](Cc2ccccc2)C(=O)N[C@H](C(N)=O)CCCC1 (stereo in doubt)",
    "Target or system": "CD36 (Rattus norvegicus)",
    "Discrete label": 0
  },
  {
    "Compound": "C=CCN1CC#CCN(NC(=O)C(N)C(C)C)C(=O)N[C@H](Cc2c[nH]c3ccccc23)C(=O)N[C@@H](C)C(=O)N[C@@H](Cc2c[nH]c3ccccc23)C(=O)N[C@H](Cc2ccccc2)C(=O)N[C@H](C(N)=O)CCCC1 (stereo in doubt)",
    "Target or system": "CD36 (Rattus norvegicus)",
    "Discrete label": 0
  },
  {
    "Compound": "C=CCN1CC#CCN(NC(=O)[C@@H](C)N)C(=O)N[C@H](Cc2c[nH]c3ccccc23)C(=O)N[C@@H](C)C(=O)NN(Cc2ccc(OC)cc2)C(=O)N[C@H](Cc2ccccc2)C(=O)N[C@H](C(N)=O)CCCC1",
    "Target or system": "CD36 (Rattus norvegicus)",
    "Discrete label": 0
  },
  {
    "Compound": "C=CCN1CC#CCN(NC(=O)[C@H](C)NC(C)=O)C(=O)N[C@H](Cc2c[nH]c3ccccc23)C(=O)N[C@@H](C)C(=O)N[C@@H](Cc2c[nH]c3ccccc23)C(=O)N[C@H](Cc2ccccc2)C(=O)N[C@H](C(N)=O)CCCC1",
    "Target or system": "CD36 (Rattus norvegicus)",
    "Discrete label": 1
  },
  {
    "Compound": "C=CCN1CC#CC[C@@H](NC(=O)[C@H](C)N)C(=O)N[C@H](Cc2c[nH]c3ccccc23)C(=O)N[C@@H](C)C(=O)N[C@@H](Cc2c[nH]c3ccccc23)C(=O)N[C@H](Cc2ccccc2)C(=O)N[C@H](C(N)=O)CCCC1",
    "Target or system": "CD36 (Rattus norvegicus)",
    "Discrete label": 0
  },
  {
    "Compound": "C=CCN1CC#CC[C@H](NC(=O)[C@H](C)N)C(=O)N[C@@H](C)C(=O)N[C@@H](Cc2c[nH]c3ccccc23)C(=O)N[C@H](Cc2ccccc2)C(=O)N[C@H](C(N)=O)CCCC1",
    "Target or system": "CD36 (Rattus norvegicus)",
    "Discrete label": 1
  },
  {
    "Compound": "C=CCN1CC#CC[C@@H](NC(=O)[C@H](C)N)C(=O)N[C@@H](C)C(=O)N[C@@H](Cc2c[nH]c3ccccc23)C(=O)N[C@H](Cc2ccccc2)C(=O)N[C@H](C(N)=O)CCCC1",
    "Target or system": "CD36 (Rattus norvegicus)",
    "Discrete label": 0
  },
  {
    "Compound": "C=CCN1CC#CCC(NC(=O)[C@H](C)N)C(=O)N[C@H](Cc2c[nH]c3ccccc23)C(=O)N[C@@H](C)C(=O)N[C@@H](Cc2c[nH]c3ccccc23)C(=O)N[C@H](Cc2ccccc2)C(=O)N[C@H](C(N)=O)CCC1 (stereo partly shown)",
    "Target or system": "CD36 (Rattus norvegicus)",
    "Discrete label": 0
  },
  {
    "Compound": "C=CCN1CC#CCN(NC(=O)[C@H](C)N)C(=O)N[C@H](Cc2c[nH]c3ccccc23)C(=O)N[C@@H](C)C(=O)N[C@@H](Cc2c[nH]c3ccccc23)C(=O)N[C@H](Cc2ccccc2)C(=O)N[C@H](C(N)=O)CCCC1",
    "Target or system": "CD36 (Rattus norvegicus)",
    "Discrete label": 1
  },
  {
    "Compound": "CN1CC#CCN(NC(=O)[C@@H](Cc2c[nH]c3ccccc23)NC(=O)[C@@H](N)Cc2cnc[nH]2)C(=O)N[C@@H](Cc2c[nH]c3ccccc23)C(=O)N[C@H](Cc2ccccc2)C(=O)N[C@H](C(N)=O)CCCC1",
    "Target or system": "CD36 (Rattus norvegicus)",
    "Discrete label": 0
  },
  {
    "Compound": "C=CCN1CC#CC[C@H](NC(=O)[C@H](C)N)C(=O)N[C@H](Cc2c[nH]c3ccccc23)C(=O)N[C@@H](C)C(=O)N[C@@H](Cc2c[nH]c3ccccc23)C(=O)N[C@H](Cc2ccccc2)C(=O)N[C@H](C(N)=O)CCCC1",
    "Target or system": "CD36 (Rattus norvegicus)",
    "Discrete label": 1
  },
  {
    "Compound": "C=CCN1CC#CCN(NC(=O)[C@@H](Cc2c[nH]c3ccccc23)NC(=O)[C@@H](N)Cc2cnc[nH]2)C(=O)N[C@@H](Cc2c[nH]c3ccccc23)C(=O)N[C@H](Cc2ccccc2)C(=O)N[C@H](C(N)=O)CCCC1",
    "Target or system": "CD36 (Rattus norvegicus)",
    "Discrete label": 1
  }
]
